Just for reference, patent US10632127B2 is where these values come from.

Could you please report measured concentration at 0.5 h for the items listed next?
PROTOCOL NOTES: Pharmacokinetic assessment in C57BL/6 healthy wild-type mice (i.p.)
Assay type: in vivo, mouse
PROTOCOL CONDITIONS: male, mouse, kidney, ip; C57BL/6 mice, 10 mg/kg i.p., 0.5 h; read-out: Kidney concentration of administered compound
Counter-ions that a name gives are not always drawn.
One number for each entry, in ng/g.

Recorded results for 3 compounds are shown here.
compound="C[C@H]1Oc2ccc(F)cc2N(CCOC(=O)NCCNC(=O)[C@@H](N)CCC(=O)O)C(=O)[C@H]1NC(=O)[C@@](C)(O)C(=O)NCC(F)(F)C(F)(F)F [Compound 15b, hydrochloride]" unit_of_measure=ng/g measured_number=8.51
compound="CC(=O)N[C@@H](CCC(=O)NCCNC(=O)OCCN1C(=O)[C@@H](NC(=O)[C@@](C)(O)C(=O)NCC(F)(F)C(F)(F)F)[C@@H](C)Oc2ccc(F)cc21)C(=O)O [Compound 13a]" unit_of_measure=ng/g measured_number=1030
compound="C[C@H]1Oc2ccc(F)cc2N(CCOC(=O)NCCN)C(=O)[C@H]1NC(=O)[C@@](C)(O)C(=O)NCC(F)(F)C(F)(F)F.Cl [Compound 11a, hydrochloride]" unit_of_measure=ng/g measured_number=15500

Pending compound:
Exercise: Returns the measured concentration at 0.5 h for the input compound. Input: CC(=O)N[C@@H](CCC(=O)O)C(=O)NCCNC(=O)OCCN1C(=O)[C@@H](NC(=O)[C@@](C)(O)C(=O)NCC(F)(F)C(F)(F)F)[C@@H](C)Oc2ccc(F)cc21 [Compound 15a]
Solution: 7540
